system: TTR; assay: TTR editing in primary cyno hepatocytes electroporated with Spy Cas9 protein and dgRNAs (Tables 10, 11); type: cell-based, cynomolgus monkey; conditions: Table 10; primary cyno hepatocytes electroporated with Spy Cas9 protein (RNP) and dgRNAs
measurementName: Avg % Insert (%)
Response body: numeric value in %, unit text excluded.

Example entries and their recorded answers appear below.
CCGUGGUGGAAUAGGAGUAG (tested as dual guide RNA, chemistry not given here) [CR003386]	3.51
UGAAUCCAAGUGUCCUCUGA (tested as dual guide RNA, chemistry not given here) [CR005303]	58.72
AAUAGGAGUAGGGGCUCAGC (tested as dual guide RNA, chemistry not given here) [CR003384]	2.50
CUGGUAUUUGUGUCUGAGGC (tested as dual guide RNA, chemistry not given here) [CR003341]	7.66
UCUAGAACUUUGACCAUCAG (tested as dual guide RNA, chemistry not given here) [CR003345]	30.74

Prompt: Field request: Avg % Insert | item: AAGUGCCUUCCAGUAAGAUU (tested as dual guide RNA, chemistry not given here) [CR003368]
Completion: 18.30

Prompt: Field request: Avg % Insert | item: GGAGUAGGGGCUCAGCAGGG (tested as dual guide RNA, chemistry not given here) [CR003382]
Completion: 8.54

Prompt: Field request: Avg % Insert | item: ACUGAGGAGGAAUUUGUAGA (tested as dual guide RNA, chemistry not given here) [CR003363]
Completion: 13.24

Prompt: Field request: Avg % Insert | item: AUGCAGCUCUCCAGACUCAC (tested as dual guide RNA, chemistry not given here) [CR003358]
Completion: 19.01

Prompt: Field request: Avg % Insert | item: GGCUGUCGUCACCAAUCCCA (tested as dual guide RNA, chemistry not given here) [CR003391]
Completion: 35.73

Prompt: Field request: Avg % Insert | item: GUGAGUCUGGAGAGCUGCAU (tested as dual guide RNA, chemistry not given here) [CR003360]
Completion: 29.05

Prompt: Field request: Avg % Insert | item: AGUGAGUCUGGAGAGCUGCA (tested as dual guide RNA, chemistry not given here) [CR003359]
Completion: 40.66

Prompt: Field request: Avg % Insert | item: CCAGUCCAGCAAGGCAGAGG (tested as dual guide RNA, chemistry not given here) [CR003337]
Completion: 24.10

Prompt: Field request: Avg % Insert | item: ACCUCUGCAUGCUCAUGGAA (tested as dual guide RNA, chemistry not given here) [CR003371]
Completion: 1.69

These measurements were taken from patent US11795460B2.
